# assayed_target: T1, human PD-L1 (human, UniProt Q9NZQ7 19-290)
# T1 construct: whole, on cells; CHO cells stably expressing huPD-L1; also called huPD-L1
# T1 sequence (Q9NZQ7 19-290): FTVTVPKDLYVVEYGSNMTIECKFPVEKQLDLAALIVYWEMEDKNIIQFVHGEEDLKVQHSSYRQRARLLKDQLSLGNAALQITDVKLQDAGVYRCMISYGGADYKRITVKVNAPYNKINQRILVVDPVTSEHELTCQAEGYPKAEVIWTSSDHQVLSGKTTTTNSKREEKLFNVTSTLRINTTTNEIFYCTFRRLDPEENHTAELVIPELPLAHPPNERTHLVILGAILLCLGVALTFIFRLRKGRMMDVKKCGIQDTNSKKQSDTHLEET
# procedure_text: flow cytometry MFI relative to WT CD80 IgV-Fc, CHO/huPD-L1 cells, 33.3 nM
measurement_label: Fold change to WT CD80 (fold)
Write the value in fold as a bare number.

Please review the entries below; each comes with its answer.
* variant CD80 IgV-Fc (inert) H18Y/E35D/M47V/V68L/A71G/D90G (Fc fusion, not shown: inert human IgG1 Fc) VIHVTKEVKEVATLSCGYNVSVEELAQTRIYWQKDKKMVLTMMSGDVNIWPEYKNRTIFDITNNLSILILGLRPSDEGTYECVVLKYEKGAFKREHLAEVTLSVKAD | 290
* variant CD80 IgV-Fc (inert) H18L/A26N/D46E/V68M/A71G/D90G (Fc fusion, not shown: inert human IgG1 Fc) VIHVTKEVKEVATLSCGLNVSVEELNQTRIYWQKEKKMVLTMMSGEMNIWPEYKNRTIFDITNNLSIMILGLRPSDEGTYECVVLKYEKGAFKREHLAEVTLSVKAD | 412
* variant CD80 IgV-Fc (inert) H18V/E35D/M47V/V68M/A71G/D90G (Fc fusion, not shown: inert human IgG1 Fc) VIHVTKEVKEVATLSCGVNVSVEELAQTRIYWQKDKKMVLTMMSGDVNIWPEYKNRTIFDITNNLSIMILGLRPSDEGTYECVVLKYEKGAFKREHLAEVTLSVKAD | 264

Data request: Report measured Fold change to WT CD80; entry is variant CD80 IgV-Fc (inert) H18T/A26N/E35D/M47L/V68M/A71G (Fc fusion, not shown: inert human IgG1 Fc) VIHVTKEVKEVATLSCGTNVSVEELNQTRIYWQKDKKMVLTMMSGDLNIWPEYKNRTIFDITNNLSIMILGLRPSDEGTYECVVLKYEKDAFKREHLAEVTLSVKAD
Data returned: 415

Data request: Report measured Fold change to WT CD80; entry is variant CD80 IgV-Fc (inert) H18I/A26P/E35D/M47V/V68M/A71G (Fc fusion, not shown: inert human IgG1 Fc) VIHVTKEVKEVATLSCGINVSVEELPQTRIYWQKDKKMVLTMMSGDVNIWPEYKNRTIFDITNNLSIMILGLRPSDEGTYECVVLKYEKDAFKREHLAEVTLSVKAD
Data returned: 393

Data request: Report measured Fold change to WT CD80; entry is variant CD80 IgV-Fc (inert) H18V/A26K/E35D/M47L/V68M/A71G (Fc fusion, not shown: inert human IgG1 Fc) VIHVTKEVKEVATLSCGVNVSVEELKQTRIYWQKDKKMVLTMMSGDLNIWPEYKNRTIFDITNNLSIMILGLRPSDEGTYECVVLKYEKDAFKREHLAEVTLSVKAD
Data returned: 408

Data request: Report measured Fold change to WT CD80; entry is variant CD80 IgV-Fc (inert) H18V/A26G/E35D/M47V/V68M/A71G/D90G (Fc fusion, not shown: inert human IgG1 Fc) VIHVTKEVKEVATLSCGVNVSVEELGQTRIYWQKDKKMVLTMMSGDVNIWPEYKNRTIFDITNNLSIMILGLRPSDEGTYECVVLKYEKGAFKREHLAEVTLSVKAD
Data returned: 401

Data request: Report measured Fold change to WT CD80; entry is variant CD80 IgV-Fc (inert) H18F/A26D/E35D/D46E/M47T/V68M/A71G/D90G (Fc fusion, not shown: inert human IgG1 Fc) VIHVTKEVKEVATLSCGFNVSVEELDQTRIYWQKDKKMVLTMMSGETNIWPEYKNRTIFDITNNLSIMILGLRPSDEGTYECVVLKYEKGAFKREHLAEVTLSVKAD
Data returned: 167
